# run description: Mouse pharmacokinetics in CD-1 mice (blood, kidney, liver, lung)
# Format: in vivo
# condition info: male, CD-1, mouse, blood, intravenous, 1 mg/kg, Blood; 0.5 h; 1 mg/kg IV; mean; read-out: Concentration (µM) from 1 mg/kg Dosing Blood

{"molecule": "Cc1ncsc1-c1ccc(C(C)NC(=O)C2CC(O)CN2C(=O)C(c2cc(N3CCC(CN4CCC(OC5CC(Oc6cc(N7C8CCC7CN(c7cc(-c9ccccc9O)nnc7N)C8)ccn6)C5)CC4)CC3)no2)C(C)C)cc1 (stereo not shown)", "unit abbrev": "µM", "concentration at 0.5 h": 0.055}

---

# run description: Mouse pharmacokinetics in CD-1 mice (blood, kidney, liver, lung)
# Assay type: in vivo
# condition info: male, CD-1, mouse, in vivo, 20 mg/kg, Blood; 0.25 h; 20 mg/kg IV; mean; read-out: Concentration (µM) from 20 mg/kg Dosing Blood
measured attribute: concentration at 0.25 h (µM)

{"compound": "Cc1ncsc1-c1ccc(C(C)NC(=O)C2CC(O)CN2C(=O)C(c2cc(N3CCC(CN4CCC(OC5CC(Oc6cc(N7C8CCC7CN(c7cc(-c9ccccc9O)nnc7N)C8)ccn6)C5)CC4)CC3)no2)C(C)C)cc1 (stereo not shown) [A947]", "measured attribute": "concentration at 0.25 h", "data value": 3.65}

---

# run description: Mouse pharmacokinetics in CD-1 mice (blood, kidney, liver, lung)
# Format: in vivo
# condition info: male, CD-1, mouse, in vivo, 1 mg/kg, Lung; 24 h; 1 mg/kg IV; individual animals; read-out: Concentration (µM) from 1 mg/kg Dosing Lung

{"compound": "Cc1ncsc1-c1ccc(C(C)NC(=O)C2CC(O)CN2C(=O)C(c2cc(N3CCC(CN4CCC(OC5CC(Oc6cc(N7C8CCC7CN(c7cc(-c9ccccc9O)nnc7N)C8)ccn6)C5)CC4)CC3)no2)C(C)C)cc1 (stereo not shown)", "concentration at 24 h / µM": 0.014}

---

# run description: Mouse pharmacokinetics in CD-1 mice (blood, kidney, liver, lung)
# Assay type: in vivo
# condition info: male, CD-1, mouse, in vivo, 1 mg/kg, Kidney; 4 h; 1 mg/kg IV; individual animals; read-out: Concentration (µM) from 1 mg/kg Dosing Kidney
# Experimental: For the PK study, a total of 42 male CD-1 mice weighing ~20-35 g were acquired from Lingchang/Vital River Laboratory Animal Co., Ltd. (Shanghai/Beijing, P.R. China) and divided into 2 treatment groups. […] For the low-dose groups, nine animals were required for organ quantification with termination at 24 hours. For the high-dose groups, 12 animals were required for organ quantification with termination at 48 hours. […] The concentrations of […] were quantified by an LC-MS/MS method. […]
measured attribute: concentration at 4 h (µM)

{"molecule": "Cc1ncsc1-c1ccc(C(C)NC(=O)C2CC(O)CN2C(=O)C(c2cc(N3CCC(CN4CCC(OC5CC(Oc6cc(N7C8CCC7CN(c7cc(-c9ccccc9O)nnc7N)C8)ccn6)C5)CC4)CC3)no2)C(C)C)cc1 (stereo not shown) [A947]", "measured attribute": "concentration at 4 h", "unit abbrev": "µM", "data value": 0.753}

---

# run description: Mouse pharmacokinetics in CD-1 mice (blood, kidney, liver, lung)
# Assay type: in vivo
# condition info: male, CD-1, mouse, in vivo, 20 mg/kg, Blood; 8 h; 20 mg/kg IV; individual animals; read-out: Concentration (µM) from 20 mg/kg Dosing Blood
measured attribute: concentration at 8 h (µM)

{"compound": "Cc1ncsc1-c1ccc(C(C)NC(=O)C2CC(O)CN2C(=O)C(c2cc(N3CCC(CN4CCC(OC5CC(Oc6cc(N7C8CCC7CN(c7cc(-c9ccccc9O)nnc7N)C8)ccn6)C5)CC4)CC3)no2)C(C)C)cc1 (stereo not shown) [A947]", "measured attribute": "concentration at 8 h", "data value": 0.048}

---

# run description: Mouse pharmacokinetics in CD-1 mice (blood, kidney, liver, lung)
# Type: in vivo
# condition info: male, CD-1, mouse, liver, intravenous, 20 mg/kg, Liver; 24 h; 20 mg/kg IV; individual animals; read-out: Concentration (µM) from 20 mg/kg Dosing Liver
measured attribute: concentration at 24 h

{"compound": "Cc1ncsc1-c1ccc(C(C)NC(=O)C2CC(O)CN2C(=O)C(c2cc(N3CCC(CN4CCC(OC5CC(Oc6cc(N7C8CCC7CN(c7cc(-c9ccccc9O)nnc7N)C8)ccn6)C5)CC4)CC3)no2)C(C)C)cc1 (stereo not shown)", "data value": "14.3 µM"}

---

# run description: Mouse pharmacokinetics in CD-1 mice (blood, kidney, liver, lung)
# Format: in vivo
# condition info: male, CD-1, mouse, in vivo, 1 mg/kg, Kidney; 4 h; 1 mg/kg IV; mean; read-out: Concentration (µM) from 1 mg/kg Dosing Kidney
measured attribute: concentration at 4 h (µM)

{"compound": "Cc1ncsc1-c1ccc(C(C)NC(=O)C2CC(O)CN2C(=O)C(c2cc(N3CCC(CN4CCC(OC5CC(Oc6cc(N7C8CCC7CN(c7cc(-c9ccccc9O)nnc7N)C8)ccn6)C5)CC4)CC3)no2)C(C)C)cc1 (stereo not shown)", "data value": 0.561}

---

# run description: Mouse pharmacokinetics in CD-1 mice (blood, kidney, liver, lung)
# Format: in vivo
# condition info: male, CD-1, mouse, blood, intravenous, 20 mg/kg, Blood; 24 h; 20 mg/kg IV; mean; read-out: Concentration (µM) from 20 mg/kg Dosing Blood
measured attribute: concentration at 24 h

{"compound": "Cc1ncsc1-c1ccc(C(C)NC(=O)C2CC(O)CN2C(=O)C(c2cc(N3CCC(CN4CCC(OC5CC(Oc6cc(N7C8CCC7CN(c7cc(-c9ccccc9O)nnc7N)C8)ccn6)C5)CC4)CC3)no2)C(C)C)cc1 (stereo not shown)", "data value": "0.007 µM"}

---

# run description: Mouse pharmacokinetics in CD-1 mice (blood, kidney, liver, lung)
# Type: in vivo
# condition info: male, CD-1, mouse, blood, intravenous, 1 mg/kg, Blood; 0.25 h; 1 mg/kg IV; individual animals; read-out: Concentration (µM) from 1 mg/kg Dosing Blood

{"compound": "Cc1ncsc1-c1ccc(C(C)NC(=O)C2CC(O)CN2C(=O)C(c2cc(N3CCC(CN4CCC(OC5CC(Oc6cc(N7C8CCC7CN(c7cc(-c9ccccc9O)nnc7N)C8)ccn6)C5)CC4)CC3)no2)C(C)C)cc1 (stereo not shown) [A947]", "unit abbrev": "µM", "concentration at 0.25 h": 0.089}

---

# run description: Mouse pharmacokinetics in CD-1 mice (blood, kidney, liver, lung)
# Assay type: in vivo
# condition info: male, CD-1, mouse, in vivo, 20 mg/kg, Blood; 4 h; 20 mg/kg IV; mean; read-out: Concentration (µM) from 20 mg/kg Dosing Blood
measured attribute: concentration at 4 h (µM)

{"compound": "Cc1ncsc1-c1ccc(C(C)NC(=O)C2CC(O)CN2C(=O)C(c2cc(N3CCC(CN4CCC(OC5CC(Oc6cc(N7C8CCC7CN(c7cc(-c9ccccc9O)nnc7N)C8)ccn6)C5)CC4)CC3)no2)C(C)C)cc1 (stereo not shown) [A947]", "unit abbrev": "µM", "data value": 0.154}

---

# run description: Mouse pharmacokinetics in CD-1 mice (blood, kidney, liver, lung)
# Type: in vivo
# condition info: male, CD-1, mouse, in vivo, 20 mg/kg, Blood; 1 h; 20 mg/kg IV; individual animals; read-out: Concentration (µM) from 20 mg/kg Dosing Blood

{"compound": "Cc1ncsc1-c1ccc(C(C)NC(=O)C2CC(O)CN2C(=O)C(c2cc(N3CCC(CN4CCC(OC5CC(Oc6cc(N7C8CCC7CN(c7cc(-c9ccccc9O)nnc7N)C8)ccn6)C5)CC4)CC3)no2)C(C)C)cc1 (stereo not shown)", "concentration at 1 h": "0.951 µM"}

---

# run description: Mouse pharmacokinetics in CD-1 mice (blood, kidney, liver, lung)
# Format: in vivo
# condition info: male, CD-1, mouse, in vivo, 20 mg/kg, Blood; 2 h; 20 mg/kg IV; mean; read-out: Concentration (µM) from 20 mg/kg Dosing Blood

{"molecule": "Cc1ncsc1-c1ccc(C(C)NC(=O)C2CC(O)CN2C(=O)C(c2cc(N3CCC(CN4CCC(OC5CC(Oc6cc(N7C8CCC7CN(c7cc(-c9ccccc9O)nnc7N)C8)ccn6)C5)CC4)CC3)no2)C(C)C)cc1 (stereo not shown)", "unit abbrev": "µM", "concentration at 2 h": 0.252}

---

# run description: Protein binding by equilibrium dialysis (plasma, tissue homogenates, DPBS)
# Assay type: in vitro ADME, rat
# condition info: rat, plasma, Fu
measured attribute: fraction unbound at 7 h, 3000 ng/mL

{"compound": "CC(=O)CC(c1ccccc1)c1c(O)c2ccccc2oc1=O (stereo not shown) [14C-warfarin, warfarin, reference compound]", "data value": 0.015}

---

# run description: Mouse pharmacokinetics in CD-1 mice (blood, kidney, liver, lung)
# Assay type: in vivo
# condition info: male, CD-1, mouse, in vivo, 20 mg/kg, Blood; 0.5 h; 20 mg/kg IV; mean; read-out: Concentration (µM) from 20 mg/kg Dosing Blood
# Protocol: For the PK study, a total of 42 male CD-1 mice weighing ~20-35 g were acquired from Lingchang/Vital River Laboratory Animal Co., Ltd. (Shanghai/Beijing, P.R. China) and divided into 2 treatment groups. […] For the low-dose groups, nine animals were required for organ quantification with termination at 24 hours. For the high-dose groups, 12 animals were required for organ quantification with termination at 48 hours. […] The concentrations of […] were quantified by an LC-MS/MS method. […]

{"compound": "Cc1ncsc1-c1ccc(C(C)NC(=O)C2CC(O)CN2C(=O)C(c2cc(N3CCC(CN4CCC(OC5CC(Oc6cc(N7C8CCC7CN(c7cc(-c9ccccc9O)nnc7N)C8)ccn6)C5)CC4)CC3)no2)C(C)C)cc1 (stereo not shown)", "concentration at 0.5 h": "1.93 µM"}
